Origin of measurements: ChEMBL document CHEMBL1155482

System: PC-3
Assay: Cytotoxicity against human PC3 cells after 48 hrs by SRB assay
Format: functional
Condition label: PC-3, 48 h

| Input smiles | Experimental target | GI50, nM |
| --- | --- | --- |
| COc1cc2c(cc1OCCCCCCN1CCN(C(=O)c3ccccc3NCc3cc(OC)c(OC)c(OC)c3)CC1)N=C[C@@H]1CCCN1C2=O | PC-3 | 160 |
| COc1cc2c(cc1OCCCCCCN1CCN(C(=O)c3ccccc3NCc3ccncc3)CC1)N=C[C@@H]1CCCN1C2=O | PC-3 | 1800 |
| COc1cc2c(cc1OCCCCCN1CCN(C(=O)c3ccccc3NCc3coc4ccccc4c3=O)CC1)N=C[C@@H]1CCCN1C2=O | PC-3 | 140 |
| COc1cc2c(cc1OCCCCCN1CCN(C(=O)c3cc(Cl)ccc3NCc3coc4ccccc4c3=O)CC1)N=C[C@@H]1CCCN1C2=O | PC-3 | 160 |
| COc1cc2c(cc1OCCCCCN1CCN(C(=O)c3ccccc3NCc3cc(OC)c(OC)c(OC)c3)CC1)N=C[C@@H]1CCCN1C2=O | PC-3 | 140 |
| COc1cc2c(cc1O)N=C[C@@H]1CCCN1C2=O | PC-3 | 200 |
| COc1cc2c(cc1OCCCN1CCN(C(=O)c3ccccc3NCc3cc(OC)c(OC)c(OC)c3)CC1)N=C[C@@H]1CCCN1C2=O | PC-3 | 160 |

* * *

Tested on: A549
Assay: Cytotoxicity against human A549 cells after 48 hrs by SRB assay
Type: functional
Condition label: A549, 48 h
The entries below come with measured GI50 values attached.

| Input smiles | GI50, nM |
| --- | --- |
| COc1cc2c(cc1OCCCN1CCN(C(=O)c3ccccc3NCc3ccncc3)CC1)N=C[C@@H]1CCCN1C2=O | 2000 |
| COc1cc2c(cc1OCCCCCN1CCN(C(=O)c3cc(Cl)ccc3NCc3ccc4ccccc4c3)CC1)N=C[C@@H]1CCCN1C2=O | 2000 |
| COc1cc2c(cc1OCCCN1CCN(C(=O)c3ccccc3NCc3ccc4ccccc4c3)CC1)N=C[C@@H]1CCCN1C2=O | 170 |
| COc1cc2c(cc1O)N=C[C@@H]1CCCN1C2=O | 160 |
| COc1cc2c(cc1OCCCCCCN1CCN(C(=O)c3ccccc3NCc3cc(OC)c(OC)c(OC)c3)CC1)N=C[C@@H]1CCCN1C2=O | 180 |
| COc1cc2c(cc1OCCCCCN1CCN(C(=O)c3ccccc3NCc3cc(OC)c(OC)c(OC)c3)CC1)N=C[C@@H]1CCCN1C2=O | 1900 |
| COc1cc2c(cc1OCCCCCN1CCN(C(=O)c3cc(Cl)ccc3NCc3coc4ccccc4c3=O)CC1)N=C[C@@H]1CCCN1C2=O | 170 |

* * *

Test system: PC-3
Assay: Cytotoxicity against human PC3 cells after 48 hrs by SRB assay
Assay type: functional
Condition label: PC-3, 48 h

| Input smiles | GI50, nM |
| --- | --- |
| COc1cc2c(cc1OCCCCCN1CCN(C(=O)c3ccccc3NCc3ccncc3)CC1)N=C[C@@H]1CCCN1C2=O | 170 |
| COc1cc2c(cc1OCCCCCN1CCN(C(=O)c3cc(Cl)ccc3NCc3ccc4ccccc4c3)CC1)N=C[C@@H]1CCCN1C2=O | 170 |
| COc1cc2c(cc1OCCCCCN1CCN(C(=O)c3ccccc3NCc3ccc4ccccc4c3)CC1)N=C[C@@H]1CCCN1C2=O | 140 |
| COc1cc2c(cc1OCCCN1CCN(C(=O)c3ccccc3NCc3ccncc3)CC1)N=C[C@@H]1CCCN1C2=O | 1800 |
| COc1cc2c(cc1OCCCN1CCN(C(=O)c3ccccc3NCc3ccc4ccccc4c3)CC1)N=C[C@@H]1CCCN1C2=O | 140 |
| COc1cc2c(cc1OCCCCCCN1CCN(C(=O)c3ccccc3NCc3ccc4ccccc4c3)CC1)N=C[C@@H]1CCCN1C2=O | 150 |

* * *

System: A549
Assay: Cytotoxicity against human A549 cells after 48 hrs by SRB assay
Format: functional
Condition label: A549, 48 h
Property name: GI50 (nM)

| Input smiles | Property name | Measured value |
| --- | --- | --- |
| COc1cc2c(cc1OCCCCCN1CCN(C(=O)c3ccccc3NCc3ccc4ccccc4c3)CC1)N=C[C@@H]1CCCN1C2=O | GI50 | 170 |
| COc1cc2c(cc1OCCCCCN1CCN(C(=O)c3ccccc3NCc3ccncc3)CC1)N=C[C@@H]1CCCN1C2=O | GI50 | 2000 |
| COc1cc2c(cc1OCCCCCCN1CCN(C(=O)c3ccccc3NCc3ccncc3)CC1)N=C[C@@H]1CCCN1C2=O | GI50 | 2200 |
| COc1cc2c(cc1OCCCCCN1CCN(C(=O)c3ccccc3NCc3coc4ccccc4c3=O)CC1)N=C[C@@H]1CCCN1C2=O | GI50 | 160 |
| COc1cc2c(cc1OCCCCCCN1CCN(C(=O)c3ccccc3NCc3ccc4ccccc4c3)CC1)N=C[C@@H]1CCCN1C2=O | GI50 | 170 |
| COc1cc2c(cc1OCCCN1CCN(C(=O)c3ccccc3NCc3cc(OC)c(OC)c(OC)c3)CC1)N=C[C@@H]1CCCN1C2=O | GI50 | 2000 |

* * *

Tested on: MCF7
Assay: Cytotoxicity against human MCF7 cells after 48 hrs by SRB assay
Type: functional
Condition label: MCF7, 48 h
Where a name gives a salt, the structure may show the parent alone.

| Compound | GI50 |
| --- | --- |
| COc1cc2c(cc1OCCCN1CCN(C(=O)c3ccccc3NCc3cc(OC)c(OC)c(OC)c3)CC1)N=C[C@@H]1CCCN1C2=O | 0.14 µM |
| COc1cc2c(cc1OCCCCCN1CCN(C(=O)c3ccccc3NCc3coc4ccccc4c3=O)CC1)N=C[C@@H]1CCCN1C2=O | 0.14 µM |
| COc1cc2c(cc1OCCCCCN1CCN(C(=O)c3ccccc3NCc3cc(OC)c(OC)c(OC)c3)CC1)N=C[C@@H]1CCCN1C2=O | 0.14 µM |
| COc1cc2c(cc1OCCCCCCN1CCN(C(=O)c3ccccc3NCc3ccncc3)CC1)N=C[C@@H]1CCCN1C2=O | 0.15 µM |
| COc1cc2c(cc1OCCCCCCN1CCN(C(=O)c3ccccc3NCc3cc(OC)c(OC)c(OC)c3)CC1)N=C[C@@H]1CCCN1C2=O | 0.14 µM |
| COc1cc2c(cc1OCCCN1CCN(C(=O)c3ccccc3NCc3ccncc3)CC1)N=C[C@@H]1CCCN1C2=O | 0.13 µM |
| COc1cccc2c1C(=O)c1c(O)c3c(c(O)c1C2=O)C[C@@](O)(C(=O)CO)C[C@@H]3O[C@H]1C[C@H](N)[C@H](O)[C@H](C)O1 [DOXORUBICIN HYDROCHLORIDE] | 0.17 µM |
| COc1cc2c(cc1OCCCCCCN1CCN(C(=O)c3ccccc3NCc3ccc4ccccc4c3)CC1)N=C[C@@H]1CCCN1C2=O | 0.14 µM |
| COc1cc2c(cc1OCCCCCN1CCN(C(=O)c3ccccc3NCc3ccc4ccccc4c3)CC1)N=C[C@@H]1CCCN1C2=O | 0.13 µM |
| COc1cc2c(cc1OCCCCCN1CCN(C(=O)c3cc(Cl)ccc3NCc3ccc4ccccc4c3)CC1)N=C[C@@H]1CCCN1C2=O | 0.14 µM |

* * *

Test system: A-375
Assay: Induction of apoptosis in human A375 cells assessed as cells in dub G1 phase at 1 uM after 24 hrs by FACS analysis
Assay type: functional
Strictly below 3% in Activity: True. Otherwise: False.

| Input smiles | Assigned label |
| --- | --- |
| COc1cc2c(cc1OCCCCCN1CCN(C(=O)c3ccccc3NCc3coc4ccccc4c3=O)CC1)N=C[C@@H]1CCCN1C2=O | False |
| COc1cc2c(cc1OCCCN1CCN(C(=O)c3ccccc3NCc3ccc4ccccc4c3)CC1)N=C[C@@H]1CCCN1C2=O | False |
| COc1cc2c(cc1OCCCCCN1CCN(C(=O)c3ccccc3NCc3ccc4ccccc4c3)CC1)N=C[C@@H]1CCCN1C2=O | False |
| O=C(c1ccccc1NCc1ccc2ccccc2c1)N1CCNCC1 | True |
| COc1cc2c(cc1O)N=C[C@@H]1CCCN1C2=O | True |
| O=C(c1ccccc1NCc1coc2ccccc2c1=O)N1CCNCC1 | True |

* * *

System: A2780
Assay: Cytotoxicity against human A2780 cells after 48 hrs by SRB assay
Format: functional
Condition label: A2780, 48 h
The entries below come with measured GI50 values attached.
Property name: GI50

| Input smiles | Property name | Measured value |
| --- | --- | --- |
| COc1cc2c(cc1OCCCCCN1CCN(C(=O)c3ccccc3NCc3ccc4ccccc4c3)CC1)N=C[C@@H]1CCCN1C2=O | GI50 | 140 nM |
| COc1cc2c(cc1OCCCN1CCN(C(=O)c3ccccc3NCc3ccncc3)CC1)N=C[C@@H]1CCCN1C2=O | GI50 | 190 nM |
| COc1cc2c(cc1OCCCN1CCN(C(=O)c3ccccc3NCc3cc(OC)c(OC)c(OC)c3)CC1)N=C[C@@H]1CCCN1C2=O | GI50 | 180 nM |
